The measurements presented in this section are drawn from paper PMC4552634.

# Tested on: P. falciparum stage V gametocytes
# method.notes: microbe, parasite or virus in culture
# Parameters: BacTiter-Glo ATP luminescence viability of purified stage V gametocytes in 384-well plates, per cent inhibition versus DMSO
# run.parameters: Plasmodium falciparum, 48 h, read-out: % Inhibition
Threshold check on inhibition at 5 µM: at or above 30% gives Condition met, strictly below gives Condition not met.

>  <compound>
CCCN(CCC)CCCOc1ccc(C(=O)c2c(-c3ccc(OCCCN(CCC)CCC)cc3)oc3ccc(Cl)cc23)cc1 [TCMDC-142256]

>  <label>
Condition met

$$$$
>  <compound>
CCOc1ccc2c(NN=Cc3cccc(OC)c3OC)cc(C)nc2c1 [TCMDC-142205]

>  <label>
Condition met

$$$$
>  <compound>
CNc1nc(Nc2ccccc2C)nc2ccccc12 [TCMDC-142325]

>  <label>
Condition met

$$$$

Next, consider the following compound.
Determine whether measured inhibition at 5 µM meets or exceeds 30% for Cc1cc(NN=CC=Cc2ccccc2)c2cc(F)ccc2n1 [TCMDC-142177] Condition not met

###

A collection of molecules and their measured IC50
# System: P. falciparum stage V gametocytes
# method.notes: Gametocytocidal ATP bioluminescence assay (single point 5 μM and 1 μM, dose-response)
# Type: cell-based, Plasmodium falciparum
# run.parameters: Plasmodium falciparum; P. falciparum gametocytes; average; read-out: IC50 Pf Gametocytes average, IC50 (µM) average
Only the number, expressed in µM, is required.

Can you look up IC50 on P. falciparum stage V gametocytes for COc1ccc2c(c1)CC(C)(C)NC2CCCCCCCCC1NC(C)(C)Cc2cc(OC)ccc21 (stereo not drawn) ? 0.79

Can you look up IC50 on P. falciparum stage V gametocytes for `Cc1cccc2nc(-c3ccc(-c4cccc(CN5CCC(CCN6CCCCC6)CC5)c4)s3)[nH]c12.O=C(O)C(F)(F)F` ? 0.46

Can you look up IC50 on P. falciparum stage V gametocytes for `CCOc1ccc2nc3cc(NC(=O)c4ccco4)ccc3c(N)c2c1` ? 0.19

Can you look up IC50 on P. falciparum stage V gametocytes for `COCCCNC(=S)NN=C(C)c1ccccn1` ? 0.16

Can you look up IC50 on P. falciparum stage V gametocytes for CC(C)(C)c1ccc(CN2CCC(CNC(=O)c3cc(-c4ccccc4Cl)cs3)C2)cc1 (stereo not drawn) ? 0.69

Can you look up IC50 on P. falciparum stage V gametocytes for Cc1[nH]c2ccccc2c1C(=O)C(C)Sc1nnc(-c2ccccc2Br)[nH]1 (stereo not drawn) ? 0.67

Can you look up IC50 on P. falciparum stage V gametocytes for `COc1cc2nc(NCCCN3CCCCC3)nc(NCc3ccccc3)c2cc1OC` ? 0.3

Can you look up IC50 on P. falciparum stage V gametocytes for `CNC(=S)NN=C(C)c1ccccn1` ? 1.17

Can you look up IC50 on P. falciparum stage V gametocytes for `COc1cc2nc(NCc3cccc(CNC(=O)c4ccc(-c5ccc(C(C)=O)cc5)cc4)c3)nc(N)c2cc1OC.O=C(O)C(F)(F)F` ? 2

Can you look up IC50 on P. falciparum stage V gametocytes for `CCCCCCCCN1CCN(CCCCCCNc2c3ccccc3nc3ccccc23)CC1` ? 0.25

Can you look up IC50 on P. falciparum stage V gametocytes for `CCN(CC)CCN(Cc1ccc(-c2ccc(C(F)(F)F)cc2)cc1)C(=O)Cn1cc(Cc2cnn(C)c2)c(=O)nc1/C=C/c1cccc(F)c1F` ? 0.17

Can you look up IC50 on P. falciparum stage V gametocytes for `Cc1c(Cl)cccc1NC(=S)NN=Cc1ccccn1` ? 0.27

Can you look up IC50 on P. falciparum stage V gametocytes for Oc1c(C(Nc2nc3ccccc3s2)c2ccc(OC(F)F)cc2)ccc2cccnc12 (stereo not drawn) ? 0.44

Can you look up IC50 on P. falciparum stage V gametocytes for `Cc1cc(Nc2ccncc2)n2nc(C)c(-c3ccccc3Cl)c2n1` ? 1.94

Can you look up IC50 on P. falciparum stage V gametocytes for `Cc1cccc2nc(-c3ccc(-c4ccc(CN5CCC(CCN6CCCCC6)CC5)cc4)cc3)[nH]c12` ? 0.27

###

A collection of molecules and their measured % Control luminiscence
# Test system: luciferase reaction (BacTiter-Glo)
# method.notes: Interference assay (inhibition of the BacTiter-Glo luciferase reaction)
# Type: biochemical
# Design: concentration or dose not given beside the values
# run.parameters: ATP interference assay
Only the number, expressed in %, is required.

>  <molecule>
Nc1nc(N)c2c(ccc3c2ccn3Cc2ccc(-c3ccccc3)cc2)n1 [TCMDC-137813]

>  <units.text>
%

>  <% Control luminiscence>
100

$$$$
>  <molecule>
COc1cc(NC(=O)c2sc(-c3ccc(Cl)cc3)cc2NC(=O)c2ccncc2)ccc1OCCN1CCCC1 [TCMDC-135398]

>  <units.text>
%

>  <% Control luminiscence>
100

$$$$

Continue with the next molecule.
Reported % Control luminiscence for C[C@H](Cc1ccc(OCCCCCOc2ccc(C[C@@H](C)NC[C@H](O)c3cccc(Cl)c3)cc2)cc1)NC[C@H](O)c1cccc(Cl)c1 [TCMDC-131563] : what is it? 100

###

A collection of molecules and their measured inhibition at 5 µM
# Tested on: P. falciparum stage V gametocytes
# method.notes: microbe, parasite or virus in culture
# Set-up: BacTiter-Glo ATP luminescence viability of purified stage V gametocytes in 384-well plates, per cent inhibition versus DMSO
# run.parameters: Plasmodium falciparum, 48 h, read-out: % Inhibition
Only the number, expressed in %, is required.

Before answering, review these 5 worked examples.
>  <molecule>
CCN(CC)CCCC(C)Nc1c(-c2ccc(C)cc2)cnc2ccccc12 (stereo not drawn) [TCMDC-142264]

>  <units.text>
%

>  <inhibition at 5 µM>
25.6

$$$$
>  <molecule>
Nc1c2c(nc3ccccc13)C(=Cc1ccc(O)cc1)CCC2 [TCMDC-142288]

>  <units.text>
%

>  <inhibition at 5 µM>
-4.93

$$$$
>  <molecule>
COc1ccc(OC)c2c1CC1NCC2c2c(OC)ccc(OC)c21 (stereo not drawn) [TCMDC-142224]

>  <units.text>
%

>  <inhibition at 5 µM>
2.64

$$$$
>  <molecule>
COc1ccc2c(NN=Cc3c(OC)ccc4ccccc34)cc(C)nc2c1 [TCMDC-142236]

>  <units.text>
%

>  <inhibition at 5 µM>
103

$$$$
>  <molecule>
COc1ccc2c(N/N=C/c3cccc([N+](=O)[O-])c3)ccnc2c1 [TCMDC-142138]

>  <units.text>
%

>  <inhibition at 5 µM>
79.5

$$$$

Reported inhibition at 5 µM for CCOc1ccc2c(N/N=C/c3cccc([N+](=O)[O-])c3)cc(C)nc2c1 [TCMDC-142195] : what is it? 115

###

A collection of molecules and their measured IC50 at 48 h
# method.notes: Cytotoxicity in HepG2 cells (intracellular ATP, ATPlite, 48 h)
# Format: cell-based, human
# run.parameters: human, HepG2 cells; IC50 per ratio column head; unit inferred; read-out: Cytotoxicity in HepG2
Only the number, expressed in µM, is required.

>  <molecule>
N=C(NCCCCC1CCCCC1)c1cccc(C(=N)NCCCCC2CCCCC2)n1 [TCMDC-137452]

>  <IC50 at 48 h, µM>
1.6

$$$$
>  <molecule>
O=[N+]([O-])c1ccc(C=NNc2nc(Nc3ccccc3)nc(Nc3ccccc3)n2)o1 [TCMDC-125802]

>  <IC50 at 48 h, µM>
14.8

$$$$
>  <molecule>
Cc1cccc2nc(-c3ccc(-c4cccc(CNCCN5CCNCC5)c4)cc3)[nH]c12 [TCMDC-132867]

>  <IC50 at 48 h, µM>
13.4

$$$$
>  <molecule>
COc1cc2nc(NCc3cccc(CNC(=O)c4ccc(-c5ccc(C(C)=O)cc5)cc4)c3)nc(N)c2cc1OC.O=C(O)C(F)(F)F [TCMDC-138177]

>  <IC50 at 48 h, µM>
9.5

$$$$
>  <molecule>
CC(C)(C)c1ccc(CN2CCC(CNC(=O)c3cc(-c4ccccc4C(F)(F)F)cs3)C2)cc1 (stereo not drawn) [TCMDC-134441]

>  <IC50 at 48 h, µM>
6.4

$$$$

Continue with the next molecule.
Reported IC50 at 48 h for COc1cc2nc(NCCCN3CCCCC3)nc(NCc3ccccc3)c2cc1OC [TCMDC-132012] : what is it? 8.94

###

# Tested on: luciferase reaction (BacTiter-Glo)
# method.notes: Interference assay (inhibition of the BacTiter-Glo luciferase reaction)
# Type: biochemical
# Parameters: concentration or dose not given beside the values
# run.parameters: ATP interference assay
quantity.measured: % Control luminiscence (%)
Only the number, expressed in %, is required.

>  <compound>
COc1cc(NCC(C)CNCc2cn(Cc3ccccc3)c3ccccc23)nc2ccccc12 (stereo not shown) [TCMDC-140496]

>  <% Control luminiscence, %>
100

$$$$
>  <compound>
Fc1ccc2[nH]c(-c3cccc(-c4ccc(CNCCN5CCNCC5)cc4)c3)nc2c1 [TCMDC-132863]

>  <% Control luminiscence, %>
100

$$$$
>  <compound>
Cc1n[nH]c2ccc(-c3ccc4nccc(N5CCC(N)CC5)c4c3)cc12 [TCMDC-134315]

>  <% Control luminiscence, %>
100

$$$$

Continue with the next compound.
Reported % Control luminiscence for CCN(CC)CCCOC(=O)c1ccc2c(c1)-c1ccc(C(=O)OCCCN(CC)CC)c3cccc-2c13 [TCMDC-125491] : what is it? 96
